test: Aqueous solubility of the compound at pH 7.4; assay type: physicochemical
quantityKind: solubility (µg/mL)
Form entry: value (µg/mL) — number only.

| compoundSmiles | readoutUnit | recordedMeasurement |
| --- | --- | --- |
| Cc1nn(C)c2nc(N(C)CCN(C)C)c(C(=O)NC(=O)Nc3cccc(OC(C)C)c3)cc12.Cl | µg/mL | 7.8 |

We next turn to a different molecule, shown below.
For Cc1nn(C)c2ncc(C(=O)NC(=O)Nc3ccc(F)c(C(F)(F)F)c3)cc12 , what is its reported solubility? 5

###

test: Volume of distribution at steady state in rat at 5 mg/kg, iv; assay type: ADME, organism-based; parameters: dose 5 mg/kg, route intravenous; settings: in vivo, read-out: Vdss
quantityKind: Vd (L/kg)
Answer in L/kg, number only, no unit symbol.

What measured Vd goes with Cc1nn(C)c2nc(N(C)CCN(C)C)c(C(=O)NC(=O)Nc3cccc(OC(C)C)c3)cc12.Cl ? 9.9

###

Target: CYP1A2 (Homo sapiens)
Sequence (P05177 whole entry): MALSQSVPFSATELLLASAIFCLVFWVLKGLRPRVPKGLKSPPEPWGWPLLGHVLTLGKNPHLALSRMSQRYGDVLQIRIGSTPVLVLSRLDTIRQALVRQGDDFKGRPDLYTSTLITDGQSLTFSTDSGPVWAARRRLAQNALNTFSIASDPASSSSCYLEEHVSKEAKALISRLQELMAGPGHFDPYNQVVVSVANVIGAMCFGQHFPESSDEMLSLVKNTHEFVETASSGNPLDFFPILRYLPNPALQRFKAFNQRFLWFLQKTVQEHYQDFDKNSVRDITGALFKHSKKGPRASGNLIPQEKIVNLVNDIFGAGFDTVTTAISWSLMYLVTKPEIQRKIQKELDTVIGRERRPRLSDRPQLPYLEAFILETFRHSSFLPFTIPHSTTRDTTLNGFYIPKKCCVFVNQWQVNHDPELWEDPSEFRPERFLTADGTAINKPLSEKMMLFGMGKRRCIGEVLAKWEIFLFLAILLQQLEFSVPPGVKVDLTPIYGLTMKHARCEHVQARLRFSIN
Assay: Inhibition of CYP1A2 at 1 uM
Type: ADME
quantityKind: inhibition at 1 µM (%)
Please respond with the number in % and leave the unit unwritten.

// returns reported inhibition at 1 µM for input Cc1nn(C)c2nc(N(C)CCN(C)C)c(C(=O)NC(=O)Nc3cccc(OC(C)C)c3)cc12.Cl -12

###

experiment: AUC (0 to 24 hrs) in rat at 5 mg/kg, iv; assay type: ADME, organism-based; design: time < 24 hr, dose 5 mg/kg, route intravenous; conditions: plasma
quantityKind: AUC(0-t) at 24 h (ng·h/mL)
The answer is to be given in ng·h/mL; state only the numeric part.

Report AUC(0-t) at 24 h for Cc1nn(C)c2nc(N(C)CCN(C)C)c(C(=O)NC(=O)Nc3cccc(OC(C)C)c3)cc12.Cl please. 2690

###

biological target: UniProt P08684; assay: Inhibition of CYP3A4 at 1 uM; format: ADME
Sequence (P08684 whole entry): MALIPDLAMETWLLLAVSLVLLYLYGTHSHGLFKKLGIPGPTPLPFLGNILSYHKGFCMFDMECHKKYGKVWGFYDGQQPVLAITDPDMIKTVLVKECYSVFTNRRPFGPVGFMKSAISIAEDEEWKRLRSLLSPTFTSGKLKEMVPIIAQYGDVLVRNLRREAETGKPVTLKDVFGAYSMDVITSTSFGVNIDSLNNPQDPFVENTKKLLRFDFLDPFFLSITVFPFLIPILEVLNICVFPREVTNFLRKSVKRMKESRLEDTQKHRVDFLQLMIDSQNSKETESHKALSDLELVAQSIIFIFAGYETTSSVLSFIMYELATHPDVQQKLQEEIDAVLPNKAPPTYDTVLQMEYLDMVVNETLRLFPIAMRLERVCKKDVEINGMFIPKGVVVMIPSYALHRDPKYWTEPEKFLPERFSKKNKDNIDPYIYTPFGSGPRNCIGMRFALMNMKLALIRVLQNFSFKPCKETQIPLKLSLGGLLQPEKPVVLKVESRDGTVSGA
quantityKind: inhibition at 1 µM (%)
Hi! Could you send only the number? It should be in %, unit omitted.

Query: inhibition at 1 µM; subject: Cc1nn(C)c2nc(N(C)CCN(C)C)c(C(=O)NC(=O)Nc3cccc(OC(C)C)c3)cc12.Cl 4

###

test: Cmax in rat at 5 mg/kg, po; type: ADME, organism-based; design: dose 5 mg/kg, route oral; conditions: in vivo
quantityKind: Cmax (ng/mL)
Unit ng/mL implied. Number only.

If you can, please state the reported Cmax value of Cc1nn(C)c2nc(N(C)CCN(C)C)c(C(=O)NC(=O)Nc3cccc(OC(C)C)c3)cc12.Cl . 129

###

target: CYP2D6 (Homo sapiens); experiment: Inhibition of CYP2D6 at 1 uM; format: ADME
quantityKind: inhibition at 1 µM (%)
Answer format: numeric, % implied, no suffix.

Tell me the measured inhibition at 1 µM of Cc1nn(C)c2nc(N(C)CCN(C)C)c(C(=O)NC(=O)Nc3cccc(OC(C)C)c3)cc12.Cl , please. -5

###

test: Tmax in rat at 5 mg/kg, po; type: ADME, organism-based; parameters: dose 5 mg/kg, route oral; conditions: in vivo
quantityKind: Tmax (h)
Return type: number; implicit unit h.

Using the record for Cc1nn(C)c2nc(N(C)CCN(C)C)c(C(=O)NC(=O)Nc3cccc(OC(C)C)c3)cc12.Cl , report its Tmax. 5

###

# CC50 per record follows
test system: THP-1; assay: Cytotoxicity against human THP1 cells; assay type: cell-based

| compoundSmiles | recordedMeasurement |
| --- | --- |
| Cc1nn(C)c2ncc(C(=O)NC(=O)Nc3ccc(F)c(C(F)(F)F)c3)cc12 | > 50 µM |

We now examine a further molecule.
Query (molecule): O=C(NC(=O)c1ccc2c(c1)OCO2)Nc1ccc(O)c(Cl)c1 ; field requested: CC50 > 50 µM

###

test: Cmax in rat at 100 mg/kg, po; type: ADME, organism-based; design: dose 100 mg/kg, route oral; conditions: in vivo
quantityKind: Cmax
I'd appreciate it if you included the unit after the number.

What value of Cmax has been reported for the following compound? Cc1nn(C)c2nc(N(C)CCN(C)C)c(C(=O)NC(=O)Nc3cccc(OC(C)C)c3)cc12.Cl 927 ng/mL

###

Target: CYP1A2 (Homo sapiens)
Sequence (P05177 whole entry): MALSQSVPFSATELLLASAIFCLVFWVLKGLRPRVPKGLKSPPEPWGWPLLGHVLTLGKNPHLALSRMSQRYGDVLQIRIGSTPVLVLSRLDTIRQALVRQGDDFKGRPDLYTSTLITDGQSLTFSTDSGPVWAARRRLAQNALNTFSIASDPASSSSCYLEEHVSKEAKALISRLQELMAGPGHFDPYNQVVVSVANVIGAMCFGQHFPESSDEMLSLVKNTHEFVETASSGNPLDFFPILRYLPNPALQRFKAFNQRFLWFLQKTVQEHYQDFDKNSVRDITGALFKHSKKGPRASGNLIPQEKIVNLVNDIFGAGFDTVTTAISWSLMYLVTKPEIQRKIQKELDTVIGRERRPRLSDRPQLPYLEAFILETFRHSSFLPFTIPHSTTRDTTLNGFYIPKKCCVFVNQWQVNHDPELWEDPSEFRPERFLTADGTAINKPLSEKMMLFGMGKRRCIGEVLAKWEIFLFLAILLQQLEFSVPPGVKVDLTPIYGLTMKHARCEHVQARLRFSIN
Assay: Inhibition of CYP1A2 at 100 uM
Assay type: ADME
quantityKind: inhibition at 100 µM (%)
Provide only the numeric value, understood in %.

Which inhibition at 100 µM value is on record for Cc1nn(C)c2nc(N(C)CCN(C)C)c(C(=O)NC(=O)Nc3cccc(OC(C)C)c3)cc12.Cl ? -2

###

biological target: CYP2D6 (Homo sapiens, UniProt P10635); assay: Inhibition of CYP2D6 at 100 uM; format: ADME
Sequence (P10635 whole entry): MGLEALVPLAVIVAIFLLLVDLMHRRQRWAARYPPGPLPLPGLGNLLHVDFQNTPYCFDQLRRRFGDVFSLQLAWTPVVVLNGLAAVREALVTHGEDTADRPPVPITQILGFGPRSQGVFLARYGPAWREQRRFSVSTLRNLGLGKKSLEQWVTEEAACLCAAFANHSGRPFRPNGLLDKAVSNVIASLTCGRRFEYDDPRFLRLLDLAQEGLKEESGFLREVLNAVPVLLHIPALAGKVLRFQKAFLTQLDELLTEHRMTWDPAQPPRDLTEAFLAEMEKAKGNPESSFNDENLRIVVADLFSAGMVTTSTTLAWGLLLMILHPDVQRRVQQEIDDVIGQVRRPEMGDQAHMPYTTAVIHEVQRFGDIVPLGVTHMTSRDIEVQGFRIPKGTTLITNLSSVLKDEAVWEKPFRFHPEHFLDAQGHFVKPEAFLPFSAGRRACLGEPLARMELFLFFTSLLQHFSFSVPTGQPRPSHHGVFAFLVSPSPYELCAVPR
quantityKind: inhibition at 100 µM (%)
Answer format: numeric, % implied, no suffix.

Param item = Cc1nn(C)c2nc(N(C)CCN(C)C)c(C(=O)NC(=O)Nc3cccc(OC(C)C)c3)cc12.Cl ; retrieve measured inhibition at 100 µM. 73

Each recorded value in this set is attributed to ChEMBL document CHEMBL1687928.
